Test system: HT-29
ASSAY_REMARKS: Propidium iodide anti-proliferative assay
Assay type: cell-based
CONDITION_INFO: Homo sapiens, 48 h incubation, read-out: IC50 ± SEM HT-29
pIC50: −log10 of the molar value.

{"SUBSTANCE_SMILES": "COc1ccc(-c2nc3cc(-c4nnc(SCC(=O)Nc5ccc(C(=O)/C=C/c6ccc(Cl)cc6)cc5)o4)ccc3[nH]2)cc1OC", "pIC50": 5.43}
{"SUBSTANCE_SMILES": "COc1ccc(-c2nc3cc(-c4nnc(SCC(=O)Nc5ccc(C(=O)/C=C/c6ccccc6)cc5)o4)ccc3[nH]2)cc1", "pIC50": 5.85}
{"SUBSTANCE_SMILES": "COc1ccc(-c2nc3cc(-c4nnc(SCC(=O)Nc5ccc(C(=O)/C=C/c6ccc(OC)c(OC)c6)cc5)o4)ccc3[nH]2)cc1", "pIC50": 5.66}
{"SUBSTANCE_SMILES": "COc1ccc(-c2nc3cc(-c4nnc(SCC(=O)Nc5ccc(C(=O)/C=C/c6cc(OC)c(OC)c(OC)c6)cc5)o4)ccc3[nH]2)cc1", "pIC50": 5.07}

###

System: HT-29
ASSAY_REMARKS: Propidium iodide anti-proliferative assay
Assay type: cell-based
CONDITION_INFO: Homo sapiens, 48 h incubation, read-out: IC50 ± SEM HT-29
Description: The propidium iodide (PI) tests^31, 32 were further used for assessment of the IC50 of all synthesized compounds and compared to Doxorubicin as a positive control against four cancer cell lines; pancreatic cancer cell line (Panc-1), epithelial line cancer cell (A-549), breast cancer cell line (MCF-7), and colon cancer cell line (HT-29). […] Where ATC= Absorbance of treated cells and AC= Absorbance of control. […]
pIC50: −log10 of the molar value.
Listing: pIC50 of selected compounds

{"COMPOUND": "COc1cc(/C=C/C(=O)c2ccc(NC(=O)CSc3nnc(-c4ccc5[nH]c(-c6ccc(Cl)cc6)nc5c4)o3)cc2)cc(OC)c1OC [Compound 7j]", "pIC50": 4.97}
{"COMPOUND": "O=C(CSc1nnc(-c2ccc3[nH]c(-c4ccccc4)nc3c2)o1)Nc1ccc(C(=O)/C=C/c2ccccc2)cc1 [Compound 7a]", "pIC50": 4.95}
{"COMPOUND": "O=C(CSc1nnc(-c2ccc3[nH]c(-c4ccc(Cl)cc4)nc3c2)o1)Nc1ccc(C(=O)/C=C/c2ccc(Cl)cc2)cc1 [Compound 7g]", "pIC50": 5.68}

###

Listing: inhibition at 10 µM of selected compounds
Tested on: MDA-MB-231/ATCC
ASSAY_REMARKS: NCI one-dose SRB anti-proliferative screen
Type: cell-based
CONDITION_INFO: Homo sapiens; MDA-MB-231/ATCC, Breast cancer; NCI one dose; read-out: Cell growth inhibition %
MEASUREMENT_LABEL: inhibition at 10 µM

{"SUBSTANCE_SMILES": "O=C(CSc1nnc(-c2ccc3[nH]c(-c4ccccc4)nc3c2)o1)Nc1ccc(C(=O)/C=C/c2ccccc2)cc1", "DATA_VALUE": "0%"}
{"SUBSTANCE_SMILES": "COc1ccc(/C=C/C(=O)c2ccc(NC(=O)CSc3nnc(-c4ccc5[nH]c(-c6ccc(OC)cc6)nc5c4)o3)cc2)cc1", "DATA_VALUE": "9.52%"}
{"SUBSTANCE_SMILES": "COc1ccc(/C=C/C(=O)c2ccc(NC(=O)CSc3nnc(-c4ccc5[nH]c(-c6ccccc6)nc5c4)o3)cc2)cc1OC", "DATA_VALUE": "0%"}
{"SUBSTANCE_SMILES": "O=C(CSc1nnc(-c2ccc3[nH]c(-c4ccccc4)nc3c2)o1)Nc1ccc(C(=O)/C=C/c2ccc(Cl)cc2)cc1", "DATA_VALUE": "4.03%"}
{"SUBSTANCE_SMILES": "COc1ccc(-c2nc3cc(-c4nnc(SCC(=O)Nc5ccc(C(=O)/C=C/c6ccc(Cl)cc6)cc5)o4)ccc3[nH]2)cc1", "DATA_VALUE": "5.19%"}
{"SUBSTANCE_SMILES": "COc1cc(/C=C/C(=O)c2ccc(NC(=O)CSc3nnc(-c4ccc5[nH]c(-c6ccccc6)nc5c4)o3)cc2)cc(OC)c1OC", "DATA_VALUE": "6.4%"}
{"SUBSTANCE_SMILES": "COc1ccc(-c2nc3cc(-c4nnc(SCC(=O)Nc5ccc(C(=O)/C=C/c6ccccc6)cc5)o4)ccc3[nH]2)cc1", "DATA_VALUE": "22.5%"}
{"SUBSTANCE_SMILES": "COc1ccc(-c2nc3cc(-c4nnc(SCC(=O)Nc5ccc(C(=O)/C=C/c6ccc(OC)c(OC)c6)cc5)o4)ccc3[nH]2)cc1", "DATA_VALUE": "0%"}
{"SUBSTANCE_SMILES": "COc1ccc(/C=C/C(=O)c2ccc(NC(=O)CSc3nnc(-c4ccc5[nH]c(-c6ccccc6)nc5c4)o3)cc2)cc1", "DATA_VALUE": "0%"}
{"SUBSTANCE_SMILES": "COc1ccc(-c2nc3cc(-c4nnc(SCC(=O)Nc5ccc(C(=O)/C=C/c6cc(OC)c(OC)c(OC)c6)cc5)o4)ccc3[nH]2)cc1", "DATA_VALUE": "2.18%"}
